# target entity: wildtype hMC4R (Homo sapiens)
# Sequence (P32245 whole entry): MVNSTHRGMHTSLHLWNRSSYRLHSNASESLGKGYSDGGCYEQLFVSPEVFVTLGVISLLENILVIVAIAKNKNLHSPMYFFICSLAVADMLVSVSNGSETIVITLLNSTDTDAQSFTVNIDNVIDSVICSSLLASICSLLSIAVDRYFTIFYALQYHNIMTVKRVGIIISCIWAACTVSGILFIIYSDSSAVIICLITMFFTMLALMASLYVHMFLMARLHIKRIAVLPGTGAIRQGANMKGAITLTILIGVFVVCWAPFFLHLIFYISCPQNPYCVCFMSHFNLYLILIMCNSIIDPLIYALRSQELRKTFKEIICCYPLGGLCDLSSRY
# measurement notes: cAMP AlphaScreen agonist / inverse agonist assay
# Assay type: cell-based
# experimental conditions: WT hMC4R; basal = signal at 10^−12 M
assay endpoint: Inverse agonist percent decrease from basal signal (%)
Write the answer as a number in %, unit excluded.

molecule	quantity unit	data value
C[C@@H]1NC(=O)[C@@H](CN)NC(=O)[C@H](Cc2ccccc2)NC(=O)[C@H](Cc2ccccc2)NC(=O)[C@H](CCCNC(=N)N)NC(=O)[C@@H]2CCCN2C(=O)[C@H]2CCCN2C(=O)[C@H](Cc2ccccc2)NC1=O [MDE3–119-7c, c[Pro-Arg-Phe-Phe-DDap-Ala-Phe-DPro]]	%	−30

Would you kindly look at the next entry?
Which value of Inverse agonist percent decrease from basal signal has been reported for C[C@@H]1NC(=O)[C@H](CCC(=O)O)NC(=O)[C@H](Cc2ccccc2)NC(=O)[C@H](Cc2ccccc2)NC(=O)[C@H](CCCNC(=N)N)NC(=O)[C@@H]2CCCN2C(=O)[C@H]2CCCN2C(=O)[C@H](Cc2ccccc2)NC1=O [MDE3–119-5c, c[Pro-Arg-Phe-Phe-Glu-Ala-Phe-DPro]] in the records?
−35

====

# target entity: D189Q hMC4R (Homo sapiens, UniProt P32245, D189Q)
# Sequence (P32245 whole entry D189Q): as the sequence (P32245 whole entry) above, with D189Q counted along it
# measurement notes: cAMP AlphaScreen agonist / inverse agonist assay
# Type: cell-based
# experimental conditions: D189Q hMC4R
Parameter Inverse agonist percent decrease from basal activity: see the listing below.
The answer is to be given in %; state only the numeric part.

compound	target entity	quantity unit	data value
C[C@@H]1NC(=O)[C@H](CO)NC(=O)[C@H](Cc2ccccc2)NC(=O)[C@H](Cc2ccccc2)NC(=O)[C@H](CCCNC(=N)N)NC(=O)[C@@H]2CCCN2C(=O)[C@H]2CCCN2C(=O)[C@H](Cc2ccccc2)NC1=O [MDE3–85c, c[Pro-Arg-Phe-Phe-Ser-Ala-Phe-DPro]]	D189Q hMC4R (Homo sapiens, UniProt P32245, D189Q)	%	−35
C[C@@H]1NC(=O)[C@H](CC(N)=O)NC(=O)[C@H](Cc2ccccc2)NC(=O)[C@H](Cc2ccccc2)NC(=O)[C@H](CCCNC(=N)N)NC(=O)[C@@H]2CCCN2C(=O)[C@H]2CCCN2C(=O)[C@H](Cc2ccccc2)NC1=O [MDE5–108-10c, c[Pro-Arg-Phe-Phe-Asn-Ala-Phe-DPro]]	D189Q hMC4R (Homo sapiens, UniProt P32245, D189Q)	%	−45
C[C@@H]1NC(=O)[C@H](CC(=O)O)NC(=O)[C@H](Cc2ccccc2)NC(=O)[C@H](Cc2ccccc2)NC(=O)[C@H](CCCNC(=N)N)NC(=O)[C@@H]2CCCN2C(=O)[C@H]2CCCN2C(=O)[C@H](Cc2ccccc2)NC1=O [MDE3–119-4c, c[Pro-Arg-Phe-Phe-Asp-Ala-Phe-DPro]]	D189Q hMC4R (Homo sapiens, UniProt P32245, D189Q)	%	−45
C[C@@H]1NC(=O)[C@H](CN)NC(=O)[C@H](Cc2ccccc2)NC(=O)[C@H](Cc2ccccc2)NC(=O)[C@H](CCCNC(=N)N)NC(=O)[C@@H]2CCCN2C(=O)[C@H]2CCCN2C(=O)[C@H](Cc2ccccc2)NC1=O [MDE3–119-8c, c[Pro-Arg-Phe-Phe-Dap-Ala-Phe-DPro]]	D189Q hMC4R (Homo sapiens, UniProt P32245, D189Q)	%	−45
C[C@@H]1NC(=O)[C@H](CCC(=O)O)NC(=O)[C@H](Cc2ccccc2)NC(=O)[C@H](Cc2ccccc2)NC(=O)[C@H](CCCNC(=N)N)NC(=O)[C@@H]2CCCN2C(=O)[C@H]2CCCN2C(=O)[C@H](Cc2ccccc2)NC1=O [MDE3–119-5c, c[Pro-Arg-Phe-Phe-Glu-Ala-Phe-DPro]]	D189Q hMC4R (Homo sapiens, UniProt P32245, D189Q)	%	−40

Hi! What's the reported Inverse agonist percent decrease from basal activity for C[C@@H]1NC(=O)[C@@H](CN)NC(=O)[C@H](Cc2ccccc2)NC(=O)[C@H](Cc2ccccc2)NC(=O)[C@H](CCCNC(=N)N)NC(=O)[C@@H]2CCCN2C(=O)[C@H]2CCCN2C(=O)[C@H](Cc2ccccc2)NC1=O [MDE3–119-7c, c[Pro-Arg-Phe-Phe-DDap-Ala-Phe-DPro]] on D189Q hMC4R (Homo sapiens, UniProt P32245, D189Q)?
−40

API: value(readout=Inverse agonist percent decrease from basal activity, system=D189Q hMC4R (Homo sapiens, UniProt P32245, D189Q)) for record C[C@@H]1NC(=O)[C@H](C)NC(=O)[C@H](Cc2ccccc2)NC(=O)[C@H](Cc2ccccc2)NC(=O)[C@H](CCCNC(=N)N)NC(=O)[C@@H]2CCCN2C(=O)[C@H]2CCCN2C(=O)[C@H](Cc2ccccc2)NC1=O [MDE3–154c, c[Pro-Arg-Phe-Phe-Ala-Ala-Phe-DPro]]
−25

====

Let's look at some compounds and their measured Kb.
# target entity: D189K hMC4R (Homo sapiens, UniProt P32245, D189K)
# Sequence (P32245 whole entry D189K): as the sequence (P32245 whole entry) above, with D189K counted along it
# measurement notes: cAMP AlphaScreen antagonist assay
# Assay type: cell-based
Respond with the bare value in nM.

compound	Kb (nM)
C[C@@H]1NC(=O)[C@H](C)NC(=O)[C@H](Cc2ccccc2)NC(=O)[C@H](Cc2ccccc2)NC(=O)[C@H](CCCNC(=N)N)NC(=O)[C@@H]2CCCN2C(=O)[C@H]2CCCN2C(=O)[C@H](Cc2ccccc2)NC1=O [MDE3–154c, c[Pro-Arg-Phe-Phe-Ala-Ala-Phe-DPro]]	794

# next compound below
If you can, please state the reported Kb value of C[C@@H]1NC(=O)[C@H](CO)NC(=O)[C@H](Cc2ccccc2)NC(=O)[C@H](Cc2ccccc2)NC(=O)[C@H](CCCNC(=N)N)NC(=O)[C@@H]2CCCN2C(=O)[C@H]2CCCN2C(=O)[C@H](Cc2ccccc2)NC1=O [MDE3–85c, c[Pro-Arg-Phe-Phe-Ser-Ala-Phe-DPro]] .
501
